METHOD NOTES: Plasma Stability Assay of Example A3, mouse plasma
CONDITION NOTES: 120 min; 5 μM, 37° C.; % of prodrug compound remaining
OBSERVABLE: Mouse Plasma Prodrug (%)

{"columns": ["SMILES STRING", "MEASURED RESULT"],
 "data": [
  ["COc1ccc([C@@]23CCC(OC(=O)c4c(C)cccc4C)=C[C@@H]2N(C)CC3)cc1OC", 73],
  ["COc1ccc([C@@]23CCC(OC(=O)c4cccc(C)c4)=C[C@@H]2N(C)CC3)cc1OC", 0],
  ["C=C(C)C(=O)OC1=C[C@@H]2N(C)CC[C@]2(c2ccc(OC)c(OC)c2)CC1", 2.0]
]}
